- Target entity: Serine/threonine-protein kinase mTOR (Homo sapiens, UniProt P42345)
- Protocol summary: Inhibition of recombinant FLAG-tagged mTOR kinase expressed in HEK293 cells using Biotin-Ahx-Lys-Lys-Ala-Asn-Gln-Val-Phe-Leu-Gly-Phe-Thr-Tyr-Val-Ala-Pro-Ser-Val-Leu-Glu-Ser-Val-Lys-Glu-NH2 as substrate after 90 mins
# strict inequality: IC50 < 2000 nM yields T, everything else yields F

CS(=O)(=O)Cc1cc(N2CCOCC2)nc(-c2cnc3[nH]ccc3c2)n1 ... T
O=S(=O)(Cc1cc(N2CCOCC2)nc(-c2ccccn2)n1)c1ccc(F)cc1 ... T
CS(=O)(=O)Cc1cc(N2CCOCC2)nc(-c2cccc3[nH]ccc23)n1 ... T
O=S(=O)(CCc1cnccn1)Cc1cc(N2CCOCC2)nc(-c2ccccn2)n1 ... F
CS(=O)(=O)Cc1cc(N2CC3CCC(C2)O3)nc(-c2ccc3[nH]ccc3c2)n1 ... T

Request: Strictly below 2000 nM: is that where IC50 of CS(=O)(=O)Cc1cc(N2CCOCC2)nc(-c2ccc3[nH]cnc3c2)n1 sits?
Result: T

Request: Strictly below 2000 nM: is that where IC50 of CS(=O)(=O)Cc1cc(N2CCOCC2)nc(-c2ccccc2)n1 sits?
Result: F

Request: Strictly below 2000 nM: is that where IC50 of CC(C)S(=O)(=O)Cc1cc(N2CCOCC2)nc(-c2ccccn2)n1 sits?
Result: T

Request: Strictly below 2000 nM: is that where IC50 of CS(=O)(=O)Cc1cc(N2CCOCC2)nc(NC(=O)c2ccno2)n1 sits?
Result: T

Request: Strictly below 2000 nM: is that where IC50 of COCc1cccc(-c2nc(CS(C)(=O)=O)cc(N3CCOCC3)n2)c1 sits?
Result: F

Request: Strictly below 2000 nM: is that where IC50 of CS(=O)(=O)Cc1cc(N2CCOCC2)nc(-c2cccc(CO)c2)n1 sits?
Result: T

Request: Strictly below 2000 nM: is that where IC50 of Cn1ccc2cc(-c3nc(CS(C)(=O)=O)cc(N4CCOCC4)n3)ccc21 sits?
Result: F

----------
- Target entity: Phosphatidylinositol 4,5-bisphosphate 3-kinase catalytic subunit alpha isoform (Homo sapiens, UniProt P42336)
- Sequence (P42336 whole entry, canonical isoform): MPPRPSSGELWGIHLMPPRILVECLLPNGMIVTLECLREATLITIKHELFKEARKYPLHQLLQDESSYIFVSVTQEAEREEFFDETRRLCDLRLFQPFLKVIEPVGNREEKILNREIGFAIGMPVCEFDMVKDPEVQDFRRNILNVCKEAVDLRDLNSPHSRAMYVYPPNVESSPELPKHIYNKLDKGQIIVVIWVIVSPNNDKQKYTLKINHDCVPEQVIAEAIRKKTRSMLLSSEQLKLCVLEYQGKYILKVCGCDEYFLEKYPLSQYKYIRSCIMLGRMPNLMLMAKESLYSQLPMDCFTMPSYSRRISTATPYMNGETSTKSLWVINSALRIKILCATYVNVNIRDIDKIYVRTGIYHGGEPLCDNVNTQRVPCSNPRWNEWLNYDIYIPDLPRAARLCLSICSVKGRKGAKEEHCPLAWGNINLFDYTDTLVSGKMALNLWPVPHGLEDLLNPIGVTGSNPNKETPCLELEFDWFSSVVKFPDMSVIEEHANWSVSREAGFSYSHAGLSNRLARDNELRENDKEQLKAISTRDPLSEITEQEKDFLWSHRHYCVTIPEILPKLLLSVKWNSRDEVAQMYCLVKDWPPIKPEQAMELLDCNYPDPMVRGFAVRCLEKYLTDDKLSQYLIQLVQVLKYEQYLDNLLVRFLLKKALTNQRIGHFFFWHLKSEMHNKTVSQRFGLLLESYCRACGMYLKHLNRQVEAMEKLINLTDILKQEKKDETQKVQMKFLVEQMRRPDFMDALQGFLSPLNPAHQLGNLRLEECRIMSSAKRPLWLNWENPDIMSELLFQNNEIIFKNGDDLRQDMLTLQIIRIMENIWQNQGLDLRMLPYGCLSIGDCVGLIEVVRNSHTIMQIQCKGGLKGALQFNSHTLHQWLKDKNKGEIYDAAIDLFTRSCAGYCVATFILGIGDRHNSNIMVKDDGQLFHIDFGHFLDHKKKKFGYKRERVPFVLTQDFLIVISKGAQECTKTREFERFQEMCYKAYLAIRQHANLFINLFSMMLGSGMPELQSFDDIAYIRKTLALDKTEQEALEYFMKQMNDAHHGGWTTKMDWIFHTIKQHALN
- Protocol summary: Inhibition of human recombinant PI3Kalpha expressed in baculovirus system using PI(4,5)P2 as substrate after 20 mins
Reported endpoint: log10 IC50 (log10 of the value in µM)
Quick note: numbers are log10 of IC50, with µM as the unit.

CS(=O)(=O)Cc1cc(N2CCOCC2)nc(-c2cccc3[nH]ccc23)n1 ... 1.16
CC(C)S(=O)(=O)Cc1cc(N2CCOCC2)nc(-c2ccccn2)n1 ... 1.56
CS(=O)(=O)Cc1cc(N2CCOCC2)nc(-c2ccc3[nH]cnc3c2)n1 ... 0.03
CS(=O)(=O)Cc1cc(N2CCOCC2)nc(-c2cnc3[nH]ccc3c2)n1 ... -0.01
C[C@@H]1COCCN1c1cc(CS(C)(=O)=O)nc(-c2ccc3[nH]ccc3c2)n1 ... 0.72
O=S(=O)(Cc1cc(N2CCOCC2)nc(-c2ccccn2)n1)c1ccc(F)cc1 ... 0.88
CS(=O)(=O)Cc1cc(N2CCOCC2)nc(-c2cccc(CO)c2)n1 ... 0.31

Request: log10 IC50 for C[C@H]1COCCN1c1cc(CS(C)(=O)=O)nc(-c2ccc3[nH]ccc3c2)n1 ?
Result: 1.36

Data origin: ChEMBL document CHEMBL2029234
